- Test system: HT-29
- protocol: NCI tumour cell line growth inhibition, 48 h
Activity calls are given as the source filed them. Rule as the data show it: active = GI50 up to about 1.1 µM and inactive = higher.
Known GI50 of a selection of molecules

The cases that follow already have their GI50 on record.
| molecule | GI50 |
| --- | --- |
| O=Cc1ccc(-c2ccc(-c3ccc(C=O)s3)o2)s1 | > 96.2 µM (inactive) |
| CC(=O)C1(Cc2cccc3ccccc23)S(=O)(=O)OCCOS1(=O)=O | 17.5 µM (inactive) |
| O=C(NCO)NCOCn1c(=O)n(CO)c(=O)n(CO)c1=O | 32.6 µM (inactive) |
| N=C(N)NCC1CCCCCCN1 (stereo not drawn) | > 100 µM (inactive) |
| Cc1ccccc1NC(=O)C(=O)C(C#N)c1ccccc1C (stereo not drawn) | > 100 µM (inactive) |

Which GI50 is reported for this molecule? O=C(CC1(O)C(=O)Nc2ccc(Br)cc21)c1cccc([N+](=O)[O-])c1 (stereo not drawn)
32.7 µM (inactive)

Which GI50 is reported for this molecule? C/C=C(/C)c1cnc(CC(C)C)c(=O)[nH]1
> 100 µM (inactive)

---

- Test system: HOP-18
- protocol: NCI tumour cell line growth inhibition, 48 h
The source made the active and inactive calls. Cut-off read from the data, not from the text of the source: active = GI50 up to about 1.1 µM and inactive = higher.
measured.property: GI50

| compound | GI50 |
| --- | --- |
| N#Cc1c(N)c(C(=O)O)nn(-c2cccc(C(F)(F)F)c2)c1=O | 29.2 µM (inactive) |
| C=CCn1c2c(sc1=S)C(S)NC=N2 (centres undefined) | 18.9 µM (inactive) |
| NC1=NS(=O)(=O)N=C(N)C1=Cc1ccc([N+](=O)[O-])o1 | 18 µM (inactive) |

Kindly review the next compound as well.
Param readout= GI50; system= HOP-18; entry= Cc1c2c(cc3c(=O)ccn(CCN(C)C)c13)c(=O)ccn2CCN(C)C ; returns value.
15.7 µM (inactive)

---

- Tested on: OVCAR-5
- protocol: NCI tumour cell line growth inhibition, 48 h
The source made the active and inactive calls. No stated cut-off is given here; in the data, active = GI50 up to about 1.1 µM and inactive = higher.
measured.property: GI50

Which GI50 is reported for this compound? O=C(CCCc1ccccn1)c1ccccc1
> 100 µM (inactive)

---

- Test system: OVCAR-4
- protocol: NCI tumour cell line growth inhibition, 48 h
The source made the active and inactive calls. Rule as the data show it: active = GI50 up to about 1.1 µM and inactive = higher.
Known GI50 of a selection of molecules

| molecule | system | GI50 |
| --- | --- | --- |
| CC(CCOc1c2ccoc2cc2oc(=O)ccc12)C1=CC(=O)C(C)(C)O1 (configuration not stated) | OVCAR-4 | 42 µM (inactive) |

Param readout= GI50; system= OVCAR-4; entry= Cc1ccc(S(=O)(=O)N2C[C@@H]3CC[C@]4(CO[Si](C)(C)C(C)(C)C)N[C@@H](c5ccccc5)[C@H]2[C@H]34)cc1 ; returns value.
26.5 µM (inactive)

Param readout= GI50; system= OVCAR-4; entry= O=[N+]([O-])c1nccn1COCCF ; returns value.
> 100 µM (inactive)

Param readout= GI50; system= OVCAR-4; entry= Cc1ccc([S+]([O-])c2sccc2C=O)cc1 (configuration not stated) ; returns value.
29 µM (inactive)

Param readout= GI50; system= OVCAR-4; entry= COc1cccc(C2SC(=N)Nc3c2c(C)nn3C(=O)c2ccccc2O)c1 (configuration not stated) ; returns value.
> 2.88 µM (inactive)

Param readout= GI50; system= OVCAR-4; entry= Cc1c2c(cc3c(=O)ccn(CCN(C)C)c13)c(=O)ccn2CCN(C)C ; returns value.
4.4 µM (inactive)

Param readout= GI50; system= OVCAR-4; entry= O=C1OC(c2ccccc2)=N/C1=C/NC(Cc1c[nH]c2ccccc12)C(=O)O (configuration not stated) ; returns value.
> 100 µM (inactive)

Param readout= GI50; system= OVCAR-4; entry= Cc1cc(C)c2c(=O)cc(-c3ccccc3)[nH]c2c1 ; returns value.
9.71 µM (inactive)

---

- System: SK-MEL-28
- protocol: NCI tumour cell line growth inhibition, 48 h
Active and inactive are the calls of the source. No stated cut-off is given here; in the data, active = GI50 up to about 1.1 µM and inactive = higher.
Known GI50 of a selection of compounds

The cases that follow already have their GI50 on record.
| compound | system | GI50 |
| --- | --- | --- |
| CC(C)CCC[C@@H](C)C1CCC2[C@@H]3CC=C4C[C@@H](C(=O)NCC[N+](C)(C)CCCS(=O)(=O)[O-])CC[C@]4(C)C3CC[C@@]21C (stereo not given in full) | SK-MEL-28 | 19.8 µM (inactive) |
| Cc1ccc(-c2c(C#N)c(-c3ccc(Cl)cc3)c(C#N)c(=O)n2NS(=O)(=O)c2ccccc2)cc1 | SK-MEL-28 | > 100 µM (inactive) |
| Cc1cc(N)c2cc(NC(=O)Nc3ccc4nc(C)cc(N)c4c3)ccc2n1 | SK-MEL-28 | > 100 µM (inactive) |
| COc1cccc(C2SC(=N)Nc3c2c(C)nn3C(=O)c2ccccc2O)c1 (stereo not given) | SK-MEL-28 | > 10 µM (inactive) |

Param readout= GI50; system= SK-MEL-28; entry= N#CC1C(=S)NC(c2ccccc2)=CC12CCCCC2 (stereo not given) ; returns value.
34.4 µM (inactive)

---

- Tested on: LOX IMVI
- protocol: NCI tumour cell line growth inhibition, 48 h
The source made the active and inactive calls. Cut-off read from the data, not from the text of the source: active = GI50 up to about 1.1 µM and inactive = higher.
Response enum: active, inactive

| molecule | group |
| --- | --- |
| COC(=O)N/N=C(\c1nc2ccc(Cl)cc2nc1O)C(O)c1ccc([N+](=O)[O-])cc1 (stereo not given) | inactive |
| Cc1ccc(S(=O)(=O)NC(CO)C(=O)O)cc1 (stereo not given) | inactive |

For O=C1c2cc([N+](=O)[O-])cc3cc([N+](=O)[O-])cc(c23)C(=O)N1CCCNCCNCCCN1C(=O)c2cc([N+](=O)[O-])cc3cc([N+](=O)[O-])cc(c23)C1=O , which call appears in the assay record?
active

For Cc1ccc(S(=O)(=O)N2CCSCCSCCN(S(=O)(=O)c3ccc(C)cc3)CCN(S(=O)(=O)c3ccc(C)cc3)CC2)cc1 , which call appears in the assay record?
inactive

For Nc1nc(Cl)cc(NC2(CO)CCC2)n1 , which call appears in the assay record?
inactive

---

- Test system: OVCAR-3
- protocol: NCI tumour cell line growth inhibition, 48 h
Calls of active or inactive are those of the source. Rule as the data show it: active = GI50 up to about 1.1 µM and inactive = higher.
measured.property: GI50

Param readout= GI50; system= OVCAR-3; entry= N#Cc1c(N)c(C(=O)O)nn(-c2cccc(C(F)(F)F)c2)c1=O ; returns value.
> 100 µM (inactive)

---

- Test system: U-251
- protocol: NCI tumour cell line growth inhibition, 48 h
Active and inactive are the calls of the source. Cut-off read from the data, not from the text of the source: active = GI50 up to about 1.1 µM and inactive = higher.
Response enum: active, inactive

Below are worked cases with known answers.
| compound | group |
| --- | --- |
| COC(=O)C(=O)C(C(=O)C(=O)Nc1ccc(Cl)c(Cl)c1)c1nc2ccc(C(=O)c3ccccc3)cc2nc1O (centres undefined) | inactive |
| COC1=C(OC)C(=O)C(Cc2c(Cl)nc3sccn23)=C(C)C1=O | inactive |
| c1ccc2c(c1)N=c1cc3c(cc1N2)=NC12CCCCC1CC1=C(CCCC1)N32 (centres undefined) | inactive |
| Cc1ccccc1NC(=O)C(=O)C(C#N)c1ccccc1C (centres undefined) | inactive |
| CNc1ccc(/C=C2\C=Cc3ccccc32)cc1 | inactive |

For O=C(c1cc2ccccc2[nH]1)C(O)(c1cc2ccccc2[nH]1)c1cc2ccccc2[nH]1 , which call appears in the assay record?
inactive

For C1CN(P2(N3CC3)=NP(N3CC3)(N3CC3)=NP(N3CC3)(N3CC3)=N2)CCO1 (centres undefined) [FOTRETAMINE] , which call appears in the assay record?
inactive

For COC(=O)c1c2c(cc3c1CC1(C3)Cc3cc4c(c(C(=O)OC)c3C1)CCC4)CCC2 , which call appears in the assay record?
inactive

For CN(C)c1cccc(NC2=NCCO2)c1 , which call appears in the assay record?
inactive

For O=[N+]([O-])C(=C(N1CCOCC1)N1CCOCC1)/C(Cl)=C(\Cl)Br , which call appears in the assay record?
inactive

For CC1(O)CC(=O)c2c(cc3ccc(-c4c5c(c(O)c6c(O)cccc46)C(=O)CC(C)(O)C5)c(O)c3c2O)C1 (centres undefined) , which call appears in the assay record?
active

For CCOC(=O)c1csc(CCCCCCc2nc(C(=O)OCC)cs2)n1 , which call appears in the assay record?
inactive

For COc1cc(OCCN(C)C)c2[nH]c(C(=O)N3CC(CCl)c4ccc(N)cc43)cc2c1 (centres undefined) , which call appears in the assay record?
active

For CC(=O)Nc1cc(Cl)cc(Cl)c1O , which call appears in the assay record?
inactive

---

- Test system: SK-MEL-28
- protocol: NCI tumour cell line growth inhibition, 48 h
Counter-ions that a name gives are not always drawn. Activity calls are given as the source filed them. Rule as the data show it: active = GI50 up to about 1.1 µM and inactive = higher.
measured.property: GI50

The cases that follow already have their GI50 on record.
| compound | GI50 |
| --- | --- |
| COc1ccc(CCc2nccn2C)cc1OC | > 100 µM (inactive) |
| COc1ccc(-c2cc(O)c3cc(Cl)ccc3n2)cc1 | > 100 µM (inactive) |
| O=C1CCCCN1C(=O)c1ccc([N+](=O)[O-])cc1 | > 100 µM (inactive) |
| CC(C)(C)C1CCC2c3c([nH]c4ccccc34)C3C(=O)N(c4ccc(C(=O)O)cc4)C(=O)C3C2C1 (stereo not drawn) | 11.3 µM (inactive) |
| C[C@@H]1S[C@H](c2c(Cl)cccc2Cl)N2Cc3ccccc3N=C12 | > 100 µM (inactive) |
| CNNCc1ccc(C(=O)NC(C)C)cc1 [PROCARBAZINE HYDROCHLORIDE] | > 500 µM (inactive) |

Which GI50 is reported for this compound? CC(/C=C/c1ccc([N+](=O)[O-])o1)=N/N1CC(CN2CCOCC2)OC1=O (stereo not drawn)
17.3 µM (inactive)

Which GI50 is reported for this compound? COc1ccc(/C=C2\Sc3nnc(CNc4ccc(Cl)cc4)n3N=C2c2cc(F)c(Cl)cc2Cl)cc1OC
> 100 µM (inactive)

Which GI50 is reported for this compound? CO/N=C1/C(n2[nH]c(=O)n(-c3ccccc3)c2=O)C2C=CC1n1c(=O)n(-c3ccccc3)c(=O)n12 (stereo not drawn)
> 100 µM (inactive)

Which GI50 is reported for this compound? O=c1oc2ccccc2cc1-c1nc2ccccc2c(=O)[nH]1
> 100 µM (inactive)

Which GI50 is reported for this compound? O=C(NNC(=O)c1ccncc1)c1ccncc1
> 100 µM (inactive)
